Target: Putative P2Y purinoceptor 10 (Mus musculus, UniProt Q8BFU7)
Sequence (Q8BFU7 whole entry, the tested form may be a part): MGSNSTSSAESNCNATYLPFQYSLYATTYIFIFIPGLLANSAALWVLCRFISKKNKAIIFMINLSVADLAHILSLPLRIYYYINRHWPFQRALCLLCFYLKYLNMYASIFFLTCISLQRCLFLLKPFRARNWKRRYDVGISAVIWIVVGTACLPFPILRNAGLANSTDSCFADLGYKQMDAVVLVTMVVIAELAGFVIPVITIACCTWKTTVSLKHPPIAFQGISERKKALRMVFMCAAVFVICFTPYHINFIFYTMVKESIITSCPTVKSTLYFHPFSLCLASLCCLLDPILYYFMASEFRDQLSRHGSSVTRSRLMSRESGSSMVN
Test: Agonist activity at mouse P2Y10 expressed in HEK293 cells co-transfected with AP-TGFalpha/Galphaq/i1 assessed as induction of ectodomain shedding of membrane bound AP-TGFalpha after 1 hr by p-NPP substrate based microplate reader analysis
pEC50: −log10 of the molar value.

molecule	bound_operator	pEC50
CCCCCCCCCCCOc1ccccc1CCC(=O)O[C@@H]1CCOC[C@H]1OP(=O)(O)OC[C@H](N)C(=O)O	=	9.00
CCCCCCCC/C=C\CCCCCCCC(=O)OC[C@@H](COC)OP(=O)(O)OC[C@H](N)C(=O)O	<	5.52
COC[C@H](COC(=O)CCc1ccccc1OCc1cccc(Oc2ccccc2)c1)OP(=O)(O)OC[C@H](N)C(=O)O	<	5.52
C#CCOC[C@H](COC(=O)CCCCCCC/C=C\CCCCCCCC)OP(=O)(O)OC[C@H](N)C(=O)O	=	6.38
C[C@H](COP(=O)(O)OC[C@H](N)C(=O)O)OC(=O)CCc1ccccc1OCc1cccc(Oc2ccccc2)c1	=	6.77
CCCCCCCCCCCOc1ccccc1CCC(=O)O[C@@H]1COCCC1OP(=O)(O)OC[C@H](N)C(=O)O (single isomer, unassigned)	=	6.08
CCCCCCCC/C=C\CCCCCCCC(=O)O[C@H](COC)COP(=O)(O)OC[C@H](N)C(=O)O	=	7.15
C[C@H](COC(=O)CCc1ccccc1OCc1cccc(Oc2ccccc2)c1)OP(=O)(O)OC[C@H](N)C(=O)O	=	6.54
CCCCCCCC/C=C\CCCCCCCC(=O)OC[C@H](C)OP(=O)(O)OC[C@H](N)C(=O)O	=	7.43
N[C@@H](COP(=O)(O)OCCOC(=O)CCc1ccccc1OCc1cccc(Oc2ccccc2)c1)C(=O)O	=	5.64
